Biological target: FEM1B‐12 (Homo sapiens)
Sequence (Q9UK73 1-356): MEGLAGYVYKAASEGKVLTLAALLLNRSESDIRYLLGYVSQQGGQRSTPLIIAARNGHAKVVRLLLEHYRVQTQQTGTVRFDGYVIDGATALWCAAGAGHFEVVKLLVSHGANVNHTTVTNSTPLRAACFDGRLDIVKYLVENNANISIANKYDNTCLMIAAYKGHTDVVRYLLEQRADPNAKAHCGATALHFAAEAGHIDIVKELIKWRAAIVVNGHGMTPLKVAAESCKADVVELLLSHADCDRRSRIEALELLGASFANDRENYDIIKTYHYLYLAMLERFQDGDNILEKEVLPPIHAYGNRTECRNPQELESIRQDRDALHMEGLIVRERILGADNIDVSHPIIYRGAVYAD
Documented log10 of Kd across a set of compounds
Please interpret these as log10 of Kd where Kd is in µM.

{"columns": ["compound", "assayed-system", "value"],
 "data": [
  ["CC(C)(C)N1C(=O)c2ccc(C(=O)O)cc2C1=O [VU0023775]", "FEM1B‐12 (Homo sapiens)", 2.98]
]}

Consider the compound shown here: CC(C)c1ccc(NC(=O)c2cnccn2)cc1 [VU0412674] What is its recorded log10 of Kd?
2.41

Consider the compound shown here: O=C(O)c1cccc(N2CCCC2=O)c1 [VU0081201] What is its recorded log10 of Kd?
3.05

Consider the compound shown here: COCc1ccc(NC(=O)c2cccs2)cc1 [VU0175318] What is its recorded log10 of Kd?
2.00

Consider the compound shown here: O=C(Nc1ccc(F)cc1)c1cccs1 [VU0417412] What is its recorded log10 of Kd?
2.45
